- test target: Carboxy-terminal domain RNA polymerase II polypeptide A small phosphatase 1 (Homo sapiens, UniProt Q9GZU7)
- Sequence (Q9GZU7 whole entry, the tested form may be a part): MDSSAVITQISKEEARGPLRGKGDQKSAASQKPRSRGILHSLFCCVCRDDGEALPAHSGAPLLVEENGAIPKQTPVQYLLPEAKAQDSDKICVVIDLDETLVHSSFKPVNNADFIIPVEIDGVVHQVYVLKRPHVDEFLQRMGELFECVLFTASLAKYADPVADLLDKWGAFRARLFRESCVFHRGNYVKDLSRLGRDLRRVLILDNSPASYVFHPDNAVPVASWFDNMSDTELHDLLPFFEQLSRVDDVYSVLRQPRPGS
- protocol text: CTDSP1 inhibitors, concentration-response, biochemical, absorbance readout, ultra-high-throughput screen actives (AID 540297)
- Format: functional
Activity calls are given as the source filed them.
Please respond with reported IC50 for every item in the list.

For the molecule shown here, `O=C(N/N=C/c1ccc(Cl)c([N+](=O)[O-])c1)c1ccc2c(c1)OCCO2` , give the reported IC50. 4.44 µM (active)

For the molecule shown here, `O=C(Cc1ccc(S(=O)(=O)N2CCOCC2)s1)Nc1nc2c(s1)CCCC2` , give the reported IC50. 3.2 µM (active)

For the molecule shown here, `Cc1cc(/C=C2\C(=O)NC(=O)N(c3ccccc3F)C2=O)c(C)n1-c1cc(C(=O)O)cc(C(=O)O)c1` , give the reported IC50. 1.55 µM (active)

For the molecule shown here, `CCNc1nc(NCC)n2c(SCC(=O)Nc3ccc(OC(F)F)cc3)nnc2n1` , give the reported IC50. 9.83 µM (active)

For the molecule shown here, `CCc1ccc(Nc2nnc(SCC(=O)NC(=O)CN3CCCC3=O)s2)cc1` , give the reported IC50. 15 µM (active)

====

Please respond with reported IC50 for every item in the list.
- test target: UniProt:Q9GZV3
- Sequence (Q9GZV3 whole entry): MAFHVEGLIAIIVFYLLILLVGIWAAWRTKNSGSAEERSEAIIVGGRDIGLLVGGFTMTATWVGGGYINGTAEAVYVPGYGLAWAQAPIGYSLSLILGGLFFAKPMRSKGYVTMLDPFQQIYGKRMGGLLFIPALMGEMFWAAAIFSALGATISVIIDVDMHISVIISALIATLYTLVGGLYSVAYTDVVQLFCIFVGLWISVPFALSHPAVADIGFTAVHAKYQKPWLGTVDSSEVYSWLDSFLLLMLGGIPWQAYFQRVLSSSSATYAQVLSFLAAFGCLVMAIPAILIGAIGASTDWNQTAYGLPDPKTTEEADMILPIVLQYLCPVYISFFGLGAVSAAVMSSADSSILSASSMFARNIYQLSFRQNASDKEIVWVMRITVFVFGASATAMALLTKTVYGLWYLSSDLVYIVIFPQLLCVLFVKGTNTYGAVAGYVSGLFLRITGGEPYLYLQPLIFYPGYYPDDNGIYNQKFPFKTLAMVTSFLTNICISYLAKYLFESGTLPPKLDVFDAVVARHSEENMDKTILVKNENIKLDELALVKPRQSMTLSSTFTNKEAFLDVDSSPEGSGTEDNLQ
- protocol text: human choline transporter blockers, potency – cell-based, 5-point CRC, membrane potential dye, dose response (AID 504840)
- Type: functional
Calls of active or inactive are those of the source.

For the molecule shown here, O=CN/C=C/c1cc(O)ccc1O [ERBSTATIN] , give the reported IC50. 4.17 µM (active)

For the molecule shown here, Cc1cc(OC(C)C(=O)Nc2ccc(S(=O)(=O)Nc3onc(C)c3C)cc2)cc(C)c1Cl (configuration not stated) , give the reported IC50. 3.98 µM (active)

For the molecule shown here, `Cc1cccc(C)c1OCc1cc(C(=O)N2CCN(C3CCCC3)CC2)no1` , give the reported IC50. 19.1 µM (active)

For the molecule shown here, CC1=C(C(=O)Nc2cccc(C(=O)NC3CCCCC3C)c2)SCCO1 (configuration not stated) , give the reported IC50. 13.2 µM (active)

For the molecule shown here, `O=C(CSc1n[nH]c(-c2ccccc2)n1)Nc1ncc(Br)cc1Br` , give the reported IC50. 14.5 µM (active)

For the molecule shown here, `C/C(=N\N=C(N)N)c1ccc(Cl)cc1Cl` , give the reported IC50. 14.8 µM (active)

For the molecule shown here, `Cc1occc1C(=O)NNS(=O)(=O)c1ccc(Cl)cc1` , give the reported IC50. 13.5 µM (active)

====

- test target: UniProt:Q96GD4
- Sequence (Q96GD4 whole entry): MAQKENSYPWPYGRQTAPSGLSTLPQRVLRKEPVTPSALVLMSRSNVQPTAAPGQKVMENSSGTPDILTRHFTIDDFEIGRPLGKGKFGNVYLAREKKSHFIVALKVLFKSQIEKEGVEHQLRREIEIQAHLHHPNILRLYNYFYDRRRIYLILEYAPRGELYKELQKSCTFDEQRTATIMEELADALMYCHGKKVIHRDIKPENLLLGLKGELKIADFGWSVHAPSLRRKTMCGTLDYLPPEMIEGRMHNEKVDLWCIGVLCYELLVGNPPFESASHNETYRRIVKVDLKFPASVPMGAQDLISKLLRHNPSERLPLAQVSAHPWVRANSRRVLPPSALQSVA
- Assay type: functional
The source made the active and inactive calls.
reported property: Ki

For the compound shown here, `COc1cc(Nc2ncc(C(F)(F)F)c(N)n2)cc(OC)c1OC` , give the reported Ki. 39.8 nM (active)

For the compound shown here, `NC(=O)c1cccc2[nH]c(-c3ccc(N4CCN(Cc5ccccc5)CC4)nc3)nc12` , give the reported Ki. 20 nM (active)

For the compound shown here, `CN(C)CC(=O)Nc1n[nH]c2cc(-c3cn(Cc4ccccc4)nn3)ccc12` , give the reported Ki. 3160 nM (active)

For the compound shown here, COCCOC1CCC(n2nc(-c3ccc(Nc4nc5cc(Cl)ccc5o4)c(F)c3)c3c(N)ncnc32)CC1 (centres undefined) , give the reported Ki. 10 nM (active)
